Molecular target: PTB1 (human, UniProt P26599-1 1-531)
Test: EMSA
MEASURED_PARAMETER: pKd
Would you please state pKd, meaning minus log10 of the concentration in mol/L, as a bare number?

Could you tell me which pKd is on file for GGGACUACGCAAUUCUCUUUUCUGUCUACAAAUCCAAAG (ssRNA) [GABA RNA11] ?
7.82
